- System: Saccharomyces cerevisiae
- protocol: protein stability index of tFT-peptide fusion (C-terminal peptide) (PSI (0-1 scale)); higher = more stable (slower turnover)
- condition label: genetic background: wild type; temperature: 30 C
Binary classification by protein stability index, with 0.7 as an inclusive lower bound for 1 (yes); all other cases are 0 (no).

* AWAKKLKSMRRS [TAM41 C-terminal 12 aa] | 0 (no)
* RYRLEKVIGKRW [SPO20 C-terminal 12 aa] | 0 (no)
* VTVLRNSQYFFS [RPO41 C-terminal 12 aa] | 1 (yes)
* EEIRRENFRVIE [KTR7 C-terminal 12 aa] | 0 (no)
* DVEDVLIDTLCN [PEX22 C-terminal 12 aa] | 0 (no)
* QKYLEELQKKKF [YET2 C-terminal 12 aa] | 1 (yes)
* DLLDKDVLLISE [CDC7 C-terminal 12 aa] | 0 (no)
* IRKYGYNLAAYT [YLR462W C-terminal 12 aa] | 0 (no)
* YIKEAQSACNDV [COS12 C-terminal 12 aa] | 0 (no)
* SQQNNNGNQNRY [RNQ1 C-terminal 12 aa] | 0 (no)

Does the reported protein stability index for NKNKNKVTKGRR [RAD27 C-terminal 12 aa] fall at or above the 0.7 mark? 0 (no)

Does the reported protein stability index for YGANSQQTFEHT [YFR034W-A C-terminal 12 aa] fall at or above the 0.7 mark? 1 (yes)

Does the reported protein stability index for HKVIAVGRIACQ [SKI7 C-terminal 12 aa] fall at or above the 0.7 mark? 0 (no)

Does the reported protein stability index for LMRRFVLEFEKQ [SEC6 C-terminal 12 aa] fall at or above the 0.7 mark? 1 (yes)
